- System: SF-268 CNS
- Procedure Details: NCI tumour cell line growth inhibition, 48 h
Readout Name: TGI

Example results:
Compound | TGI
CC(C)OP(=O)(OC(C)C)C(N(C)C)P(=O)(OC(C)C)OC(C)C.[Cl][Sn]([Cl])([Cl])[c]1ccccc1 | 31.7 µM
CCCCN(CCCC)C(=NCc1ccccc1)NC#N | 60.3 µM
COC(=O)c1c(C)oc2ccc(OC(C)=O)cc12 | > 100 µM
COC(=O)Cc1c(C2=Nc3ccccc3C2(O)CC(=O)OC)[nH]c2ccccc12 (stereo not given) | > 100 µM
COc1ccc(CNc2nc(NCc3ccc(OC)cc3)nc(NC3CCCCC3)n2)cc1 | 6.5 µM

Query :: I would be grateful if you could share the reported TGI for Cc1nnc2n1N=C(CC(=O)c1ccc(O)cc1O)CN2N .
Result :: > 100 µM

Query :: Entry Cc1cc(CS(=O)(=O)/C=C/c2ccccc2[N+](=O)[O-])c(CS(=O)(=O)/C=C/c2ccccc2[N+](=O)[O-])cc1C please
Result :: > 100 µM

Query :: Entry CCOC(=O)CCC(NC(=O)OCc1ccccc1)C(=O)NNC(=O)OC(C)(C)C (stereo not given) please
Result :: > 100 µM

Query :: Entry CC(CS(=O)(=O)Cc1ccccc1)C(N)=O (stereo not given) please
Result :: > 100 µM

Query :: Entry CC1(CC(=O)O)OC2CCCCCC2O1 (stereo not given) (tested in a mixture with another compound) please
Result :: > 100 µM

* * *

- System: SR leukemia
- Procedure Details: NCI tumour cell line growth inhibition, 48 h
Readout Name: TGI (µM)
Unit µM implied. Number only.

Example results:
Compound | TGI / µM
Cc1ccc2ccccc2c1CC1S(=O)(=O)OCCOS1(=O)=O | 24.9
O=C1c2cc([N+](=O)[O-])ccc2NC2C(O)c3ccccc3N12 (stereo unspecified) | 56.2
CN1C(=O)c2cc(Cl)nc3c(NC(=O)c4cccc(Cl)c4)c(Cl)c(NC(=O)c4cccc(Cl)c4)c1c23 | 2.95
CCCCCCCCCCCCCCCC[N+]1(CC)CCCC1 | 4.42
COC(=O)C(C)N1C(=O)c2ccccc2I1OC(C)=O (stereo unspecified) | 49.2
COc1ccc2nc3ccc(OC)cc3c(SCCCN)c2c1 | 3.64
COc1ccc2cccc(C(=N)c3ccc(C)c4c3CCC4)c2c1 | 9.03

Query :: I would be grateful if you could share the reported TGI for CCN(CC)c1ccc(C(=C2C=CC(=[N+](CC)CC)C=C2)c2ccc(N(CC)CC)cc2)cc1 .
Result :: 0.582

* * *

Below: a set of entries, each annotated with reported TGI.
- Tested on: NCI/ADR-RES ovarian
- Procedure Details: NCI tumour cell line growth inhibition, 48 h

Example results:
Molecule | Assayed Target | TGI
CCOC(=O)CCC(NC(=O)OCc1ccccc1)C(=O)NNC(=O)OC(C)(C)C (centres undefined) | NCI/ADR-RES ovarian | > 100 µM
COc1ccc2c(c1O)[C@@]13C=C(O)C(=O)C=C1[C@@H](C2)N(C)CC3 | NCI/ADR-RES ovarian | > 100 µM
CO[C@H]1C=C[C@]23c4cc5c(cc4CN(CC2O)[C@@H]3C1)OCO5 (some centres undefined) | NCI/ADR-RES ovarian | 58.8 µM
NC(N)=N/N=C(\c1ccc(Cl)cc1)C1CC1 | NCI/ADR-RES ovarian | 61.2 µM
CN1CCCC1c1cccnc1.O=C(O)c1ccccc1O.O=C([O-])c1ccccc1[OH2+].O=C([O-])c1ccccc1[OH2+].O=C([O-])c1ccccc1[OH2+].[Mn+2] (centres undefined) | NCI/ADR-RES ovarian | > 100 µM

Query :: Kindly state the measured TGI obtained for COc1ccc(C2CC(c3c(C)nn(-c4ccccc4)c3-c3ccc(C)cc3O)=NN2c2ccccc2)cc1 (centres undefined) with NCI/ADR-RES ovarian.
Result :: > 100 µM

Query :: Entry O=[N+]([O-])c1ccc2nc3ccc([N+](=O)[O-])cn3c2c1 please
Result :: > 100 µM

Query :: Entry CCCCCCCCCCCCCCCCOCC(CC(F)(F)P(=O)(O)O)OC(C)=O (centres undefined) please
Result :: > 50 µM

Query :: Entry O=C(C[C@@H]1NCCC[C@H]1O)Cn1cnc2cc(Br)c(Cl)cc2c1=O please
Result :: 0.603 µM

Query :: Entry CC(C)(C)OC(=O)NC(Cc1ccccc1)C(=O)N[C@H]1c2ccsc2/C(=N/O)[C@H]1O (some centres undefined) please
Result :: > 100 µM

Query :: Entry O=C1C=C(Nc2cccc(Br)c2)c2ccccc2C1=O please
Result :: 51.6 µM

Query :: Entry O=C1CCSSCCC(=O)Nc2ccccc2N1 please
Result :: > 100 µM

Query :: Entry COC(=O)c1cc(Nc2ccc(O)c3c2C(=O)c2c([N+](=O)[O-])ccc(O)c2C3=O)cc(C(=O)OC)c1 please
Result :: > 100 µM

Query :: Entry Cc1cnc(Cl)nc1C(C#N)c1nc2ccccc2n1C (centres undefined) please
Result :: > 100 µM
